The reader will find reported GI50 values listed item by item below.
# Test system: CCRF-CEM leukemia
# protocolNotes: NCI tumour cell line growth inhibition, 48 h
measuredMetric: GI50

compound: CNC(=O)NCC1OC(n2cnc3c(NC(=O)Nc4ccccc4)ncnc32)C(O[Si](C)(C)C(C)(C)C)C1O[Si](C)(C)C(C)(C)C (stereo not drawn)
value: 3.59 µM

compound: COC(C)(C)[C@@H](O)[C@H](O)C[C@H](C)C1=C2CC[C@@H]3[C@@]4(C)CC[C@@H](OC(C)=O)C(C)(C)[C@@H]4C[C@@H](OC4OC(COC(C)=O)C(O)C(O)C4O)[C@@]3(C)[C@]2(C)CC1 (stereo partly drawn)
value: 5.34 µM

compound: COC(=O)c1c2c(c(C)[n+]([O-])c1C)C(=O)C=C(NCc1ccccc1)C2=O
value: 0.668 µM

* * *

# Test system: DMS 273 small cell lung
# protocolNotes: NCI tumour cell line growth inhibition, 48 h
measuredMetric: TGI

molecule: COC1C(OC(=O)c2ccc(C)[nH]2)C(O)C(Oc2ccc3c(O)c(NC(=O)c4c[nH]c(C(=O)Nc5c(O)c6ccc(OC7OC(C)(C)C(OC)C(OC(=O)c8ccc(C)[nH]8)C7O)c(C)c6oc5=O)c4C)c(=O)oc3c2C)OC1(C)C (configuration not stated)
value: 12.2 µM
//
molecule: C=C1CC(CC)(CCN2C(=O)c3ccccc3C2=O)OC1=O (configuration not stated)
value: 24.6 µM
//
molecule: Cc1c(C(=O)C/C(=N/NC(=O)c2ccccc2)C(=O)Nc2ccc(Cl)cc2)[n+](=O)c2ccccc2n1[O-]
value: > 100 µM
//
molecule: O=C1C2C(C(=O)N1c1ccccc1)C1c3ccccc3C2C2C(=O)N(c3ccccc3)C(=O)C21 (configuration not stated)
value: 53.2 µM
//
molecule: C=CCn1c(=S)sc2c(C(=O)OCC)c3c(C)cc(C)cn3c2c1=O
value: > 100 µM
//
molecule: Cc1cc2c(c(C(N)=O)c1C)-c1cccc(F)c1C2=O
value: > 100 µM
//
molecule: ClC(Cl)=C(Cl)C1(Cl)CC1COCc1ccccc1 (configuration not stated)
value: > 100 µM
//
molecule: [N-]=[N+]=NC(c1cn(C2CC(O)C(CO)O2)c(=O)[nH]c1=O)C(Cl)Br (configuration not stated)
value: > 100 µM
//
molecule: CC(C(=O)OCc1ccccc1)N(Cc1ccccc1)Cc1ccccc1 (configuration not stated)
value: > 100 µM
//
molecule: O=C(/C=C(\O)C(=O)O)/C=C(\O)c1ccccc1
value: > 100 µM
//
molecule: COc1ccccc1OCC(COC(=O)Nc1ccccc1)OC(=O)Nc1ccccc1 (configuration not stated)
value: > 100 µM
//
molecule: COC(=O)CCC(NC(=S)N/N=C(\C)c1ccc[nH]1)C(=O)OC (configuration not stated)
value: > 100 µM

* * *

# System: OVCAR-4 ovarian
# protocolNotes: NCI tumour cell line growth inhibition, 48 h
measuredMetric: TGI

molecule: CCn1c(=O)c2nc(SC)sc2n(-c2ccc(C)cc2)c1=O
value: > 100 µM

molecule: COC(=O)C1CC2(C)C=CC1N(C(=O)OCc1ccccc1)C2 (stereo not drawn)
value: > 100 µM

molecule: O=C(c1ccccc1)c1ccc2nc(-c3c(Cl)c(Cl)c(Cl)c(Cl)c3-c3nnc(-c4ccccc4)o3)[nH]c2c1
value: > 100 µM

* * *

# System: K-562 leukemia
# protocolNotes: NCI tumour cell line growth inhibition, 48 h
measuredMetric: TGI

molecule: C(/C=N/NC1=NCCCCN1)=N\NC1=NCCCCN1
value: > 100 µM
//
molecule: C/C=C(\C)C(=O)OC1CC(OC(C)=O)C2(C(=O)OC)COC3C2C1(C)C1C2(C(=O)OC)OCC1(C3O)C1(O)C3CC(C4(O)C=COC4O3)C1(C)O2 (centres undefined)
value: > 100 µM
//
molecule: O=C(O)C[C@H](O)C[C@H](O)/C=C/c1c(C2CC2)nc2ccccc2c1-c1ccc(F)cc1
value: > 100 µM
//
molecule: CCc1cccc2c3c([nH]c12)-c1ccccc1NC(=O)C3
value: > 100 µM
//
molecule: O=C(Oc1cccc(Cl)c1)c1ccccc1Nc1ccnc(C(F)(F)F)c1
value: 34.3 µM
//
molecule: CCn1c(=O)c2nc(SC)sc2n(-c2ccc(C)cc2)c1=O
value: > 100 µM
//
molecule: O=c1[nH]nc(-c2ccccc2)n1/N=C/c1ccc([N+](=O)[O-])o1
value: > 77.1 µM
//
molecule: COc1cc2c(cc1OC)-c1ncc3c(OC)ccc(OC)c3c1C2
value: 82 µM
//
molecule: NC(Cc1ccc(OCc2ccccc2)cc1)C(=O)NC(Cc1ccccc1)C(=O)Oc1c(Cl)c(Cl)c(Cl)c(Cl)c1Cl (centres undefined)
value: > 100 µM

* * *

# Tested on: ACHN renal
# protocolNotes: NCI tumour cell line growth inhibition, 48 h
Consider the following compounds and their measured TGI readings.

testSmiles: COc1ccccc1N=Nc1c(-c2ccccc2)nn(C(=O)CC(=O)Nc2cccc(C)c2)c1-c1ccccc1
TGI: > 100 µM
--
testSmiles: CC(C)(C)OC(=O)[C@@H]1CCC(=O)N1C1(c2ccccc2)c2ccccc2-c2ccccc21
TGI: > 100 µM
--
testSmiles: COc1cc2ccc(C(=O)NCCCNC(=O)c3ccc4cc(OC)c(OC)cc4c3)cc2cc1OC
TGI: > 100 µM
--
testSmiles: CCOC(=O)c1ccc(Nc2nc3ccccc3nc2-c2cccs2)cc1
TGI: > 100 µM
--
testSmiles: COc1cc(/C=C2\CC/C(=C\c3cc(OC)c(O)c(OC)c3)C2=O)cc(OC)c1O
TGI: 6.58 µM
--
testSmiles: Cc1cc2[nH]c3c(C#N)c(-c4ccccc4)c(N=Nc4ccc(F)cc4)c(=O)n3c2cc1C
TGI: > 100 µM
--
testSmiles: C=CC(=O)N1CCC(c2ccc(C(N)=O)c(-c3ccc(Oc4ccccc4)cc3)n2)CC1
TGI: > 100 µM
--
testSmiles: O=C(/C(=C(/O)c1ccccc1)c1nc2ccccc2sc1=O)c1ccccc1
TGI: > 100 µM
--
testSmiles: O=C1NC(=O)c2ccccc2/C1=C/c1ccc2c(c1)OCO2
TGI: 34.3 µM

* * *

# System: K-562 leukemia
# protocolNotes: NCI tumour cell line growth inhibition, 48 h

compound: Fc1cccc(F)c1C1SCc2nc3cc(Cl)c(Cl)cc3n21 (stereo not given)
TGI: > 100 µM

compound: CCCC[C@@H](C)/C=C1\CN2CCC[C@H]2[C@@](C)(OCc2ccccc2)[C@@H]1O
TGI: > 50 µM

compound: C1=NCCNCCNCCN=Cc2ccc(cc2)OCc2cccc(n2)COc2ccc1cc2
TGI: > 100 µM

compound: C#CC1(O)CCC2C3CCc4cc(Oc5nc(F)nc(-c6c7ccccc7c7n6CCS7)n5)ccc4C3CC[C@@]21C (stereo not given in full)
TGI: > 100 µM

compound: OCCCCC#Cc1ccccc1C#Cc1ccc(O)cc1
TGI: 45 µM

* * *

Here the recorded TGI is given for each entry.
# System: HCT-116 colon
# protocolNotes: NCI tumour cell line growth inhibition, 48 h
measuredMetric: TGI

molecule: O=C(O)CCC(=O)OCN1C(=O)C2C3C=CC(C2C1=O)C1C2C(=O)N(COC(=O)CCC(=O)O)C(=O)C2C31 (stereo not given)
value: > 54.3 µM

molecule: O=C(NCCN1CCOCC1)OCc1nc2nc(Cl)nc(N3CCOCC3)c2[nH]1
value: > 100 µM

molecule: COc1ccc(-c2c(C)c(C(=O)O)nc(-c3ccc4c(O)c(OC)c5c(c4n3)=NC(C)(C)N=5)c2N)c(O)c1OC
value: 52.1 µM

molecule: O=S(=O)(O)O
value: 914 µM

molecule: C(/C=N/NC1=NCCCCN1)=N\NC1=NCCCCN1
value: > 100 µM

* * *

Below: a set of entries, each annotated with reported TGI.
# System: HCT-15 colon
# protocolNotes: NCI tumour cell line growth inhibition, 48 h

compound: O=c1[nH]nc(-c2ccccc2)n1/N=C/c1ccc([N+](=O)[O-])o1
assayTarget: HCT-15 colon
readoutRelation: =
TGI, µM: 17.3

compound: Nc1ccc(-c2nc3ccccc3s2)cc1Cl
assayTarget: HCT-15 colon
readoutRelation: >
TGI, µM: 100

compound: C=CC(=O)N1C/C(=C\c2ccc(Cl)c(Cl)c2)C(=O)/C(=C/c2ccc(Cl)c(Cl)c2)C1
assayTarget: HCT-15 colon
readoutRelation: =
TGI, µM: 0.201

compound: O=[N+]([O-])/C=C/c1c(Cl)cccc1Cl
assayTarget: HCT-15 colon
readoutRelation: =
TGI, µM: 5.04

compound: CNC(=O)NCC1OC(n2cnc3c(NC(=O)Nc4ccccc4)ncnc32)C(O[Si](C)(C)C(C)(C)C)C1O[Si](C)(C)C(C)(C)C (centres undefined)
assayTarget: HCT-15 colon
readoutRelation: >
TGI, µM: 100

compound: O=[N+]([O-])c1cccc(/C=N/NC2=CS(=O)(=O)C=C2)c1
assayTarget: HCT-15 colon
readoutRelation: >
TGI, µM: 100

compound: CCOC(=O)C1CC(C(=O)c2ccccc2)N2c3ccccc3-c3ccccc3C12 (centres undefined)
assayTarget: HCT-15 colon
readoutRelation: >
TGI, µM: 100

compound: CN(Cc1cnc2nc(N)nc(N)c2n1)c1ccc(C(=O)NC23CC4CC(CC(C4)C2)C3)cc1
assayTarget: HCT-15 colon
readoutRelation: =
TGI, µM: 16.6

compound: CCOC(=O)NC(=O)c1cn(CCN2CCN(C(=O)CNC(=O)CNC(=O)Cn3cc(C(=O)NC(=O)OCC)c(=O)[nH]c3=O)CC2)c(=O)[nH]c1=O
assayTarget: HCT-15 colon
readoutRelation: >
TGI, µM: 100
